test system: Vero E6 infected with SARS-CoV-2; assay: inhibition of SARS-CoV-2 cytopathic effect; higher = more antiviral protection, active = above 15; settings: 8.33 nM; 48 h
Measured inhibition of SARS-CoV-2 cytopathic effect, listed per entry for reference.
PROPERTY_NAME: inhibition of SARS-CoV-2 cytopathic effect (%)

                                   molecule  value_unit  result
0                c1cc2c(c(N3CCNCC3)c1)OCCO2           %    2.36
1             O=[N+]([O-])c1cncn1CCN1CCOCC1           %   -0.32
2  CC(C)(C)NCC(O)CSc1nc(-c2ccc(C(N)=O)s2)cs1 (centres undefined)           %   -9.63
3  O=C1Nc2ccccc2C2(CCN(CCc3ccc(C(F)(F)F)cc3)CC2)O1           %   -4.51
4       CCN(CCNC(=O)Nc1ccccc1Br)c1cccc(C)c1           %    2.65
5  C[C@H]1O[C@@H](Oc2c(-c3cc(O)c(O)c(O)c3)oc3cc(O)cc(O)c3c2=O)[C@@H](O)[C@@H](O)[C@@H]1O           %   -0.53
6  CC(=O)OCC(=O)[C@@]12OC3(CCCC3)O[C@@H]1C[C@H]1[C@@H]3CCC4=CC(=O)C=C[C@]4(C)[C@@]3(F)[C@@H](O)C[C@@]12C [amcinonide]           %    -0.7
7           Cn1cnnc1Sc1c([N+](=O)[O-])ncn1C           %     1.9
8               O=c1c(-c2ccccc2)c1-c1ccccc1           %    0.49

* * *

test system: Vero E6 infected with SARS-CoV-2; assay: inhibition of SARS-CoV-2 cytopathic effect; higher = more antiviral protection, active = above 15; settings: 10000 nM; 48 h
PROPERTY_NAME: inhibition of SARS-CoV-2 cytopathic effect (%)

                                   molecule  result
0  CNc1nc(C)nc(N[C@H]2CCC[C@@H](C(=O)NCc3ccc(C#N)cc3C(F)(F)F)C2)n1   -2.39
1  CN[C@H](C(=O)N[C@H](C(=O)N(C)[C@H](/C=C(\C)C(=O)O)C(C)C)C(C)(C)C)C(C)(C)c1ccccc1   -1.03
2       C[C@@H](Oc1ccc(Cl)cc1)c1ccnc2ncnn12    -3.4
3  CCN1CCN(Cc2ccc(C(=O)Nc3ccc(C)c(Oc4ccc5c(c4)CC(=O)N5)c3)cc2C(F)(F)F)CC1      56
4  c1ccc([C@H]2CNCc3ccccc32)cc1 [4-phenyl-1,2,3,4-tetrahydroisoquinoline]       3
5  C#C[C@]1(OC(C)=O)CC[C@H]2[C@@H]3CCC4=CC(=O)CC[C@@H]4[C@H]3CC[C@@]21C [norethindrone-acetate]    1.02
6                    CC1=CC(=O)c2ccccc2C1=O   -2.15
7  C[C@]1(Cn2ccnn2)[C@H](C(=O)O)N2C(=O)C[C@H]2S1(=O)=O    2.47
8                        C1N2CN3CN1CN(C2)C3   -1.08

* * *

tested on: Vero E6 infected with SARS-CoV-2; assay: SARS-CoV-2 infection rate relative to infected DMSO; higher = more infection, active = 60 or less; settings: 24 h
Measured SARS-CoV-2 infection rate, listed per entry for reference.
PROPERTY_NAME: SARS-CoV-2 infection rate

MOLECULE	PROPERTY_NAME	RESULT
COc1ccc(/C=C\c2cc(OC)c(OC)c(OC)c2)cc1O [combretastatin-A-4] (10 µM)	SARS-CoV-2 infection rate	98.5% (inactive)
CC1/C=C/C=C/C=C/C=C/C=C/C=C/C=C/C(OC2O[C@H](C)[C@@H](O)[C@H](N)[C@@H]2O)CC(O)C(C(=O)O)C(O)CC(=O)CC(O)CC(O)CC(O)CC(=O)CCCC(=O)CC(=O)OC1C(C)CC(C)C(O)CC(=O)c1ccc(N)cc1 (some centres undefined) [candicidin] (0.833333 µM)	SARS-CoV-2 infection rate	100% (inactive)
O=c1cc(N2CCOCC2)oc2c(-c3ccccc3)cccc12 (0.833333 µM)	SARS-CoV-2 infection rate	98.5% (inactive)
O=C1CCC2CCC(=O)N12 [rolziracetam] (10 µM)	SARS-CoV-2 infection rate	106% (inactive)

* * *

test system: Vero E6 infected with SARS-CoV-2; test: inhibition of SARS-CoV-2 cytopathic effect; higher = more antiviral protection, active = above 15; settings: 100 nM; 48 h
Measured inhibition of SARS-CoV-2 cytopathic effect, listed per entry for reference.
PROPERTY_NAME: inhibition of SARS-CoV-2 cytopathic effect (%)

In [3]: df
Out[3]:
                                    compound  result
 0  CC(C)(C)S(=O)(=O)N[C@H]1CC[C@H](C(=O)Nc2ccc(C(F)(F)F)cn2)CC1   -0.23
 1  O=C(/C=C/c1ccc(O)c(O)c1)O[C@H](Cc1ccc(O)c(O)c1)C(=O)O    2.25
 2  C1CCN2C[C@@H]3C[C@@H](CN4CCCC[C@@H]34)[C@H]2C1 [sparteine-sulfate]    3.05
 3  O=C(Oc1ccc([N+](=O)[O-])cc1)N1CCN(Cc2cccc(Oc3ccccc3)c2)CC1   -1.22
 4  C1CCC(C(CC2CCCCN2)C2CCCCC2)CC1 (centres undefined)    2.39
 5  COc1c(N2C[C@@H]3CCCN[C@@H]3C2)c(F)cc2c(=O)c(C(=O)O)cn(C3CC3)c12    2.33
 6  O=C1C2CC=CCC2C(=O)N1SC(Cl)(Cl)Cl (centres undefined)    4.16
 7  CN1c2ccccc2C(=O)N2CCc3c([nH]c4ccccc34)C21 (stereo in doubt)    2.14
 8                            O=C(O)c1ccccc1   -1.57
 9  CC(=O)O[C@]1(C(C)=O)CC[C@H]2[C@@H]3C=C(Cl)C4=CC(=O)CC[C@]4(C)[C@H]3CC[C@@]21C [chlormadinone-acetate]   -10.2
10                   N[C@@H]1CCN(c2cccnc2)C1    1.46
11         O=C(O)c1ccccc1Nc1cccc(C(F)(F)F)c1   -0.92
12            Fc1ccc(CNc2ncnc3ccc(F)cc23)cc1   -0.05
13        O[C@H]1[C@H]2[C@H](O)CCCN2C[C@H]1O    1.87
14  CCOc1cn(-c2ccc(F)cc2C)nc1C(=O)Nc1ccc(Oc2ccnc3cc(OC)c(OC)cc23)c(F)c1   -1.89
15  N#Cc1c(O)c2c(-c3ccc(-c4ccccc4O)cc3)csc2[nH]c1=O   -1.86
16  O=c1c(-c2ccc(O)cc2)coc2c([C@@H]3O[C@H](CO)[C@@H](O)[C@H](O)[C@H]3O)c(O)ccc12 [puerarin]   -2.16
17      C/C(=N\c1ccccc1N)c1c(C)cc(=O)n(O)c1O   -1.91
18  C=C1CCN([C@H](C)[C@](O)(Cn2cncn2)c2ccc(F)cc2F)CC1    0.85

* * *

Measured SARS-CoV-2 infection rate, listed per entry for reference.
system: Vero E6 infected with SARS-CoV-2; assay: SARS-CoV-2 infection rate relative to infected DMSO; higher = more infection, active = 60 or less; conditions: 24 h
PROPERTY_NAME: SARS-CoV-2 infection rate

COMPOUND	RESULT
COc1cccc(OC)c1-c1cc(C(=O)N[C@@H](CC(C)C)C(=O)O)nn1-c1ccnc2cc(Cl)ccc12 (10 µM)	114% (inactive)
Nc1ncnc2c1ncn2[C@@H]1O[C@H](CO)C[C@H]1O [cordycepin] (10 µM)	112% (inactive)
COC(=O)[C@H](Cc1ccccc1)NC(=O)[C@@H](N)CC(=O)O [aspartame] (10 µM)	106% (inactive)
COc1c(Nc2ccc(S(C)(=O)=O)nc2C)ncnc1OC1CCN(C(=O)OC(C)C)CC1 (10 µM)	100% (inactive)
Cc1cccc(-c2[nH]c(C(C)(C)C)nc2-c2ccc3c(c2)OCO3)n1 (10 µM)	115% (inactive)
COc1cccc2c1C(=O)c1c(O)c3c(c(O)c1C2=O)C[C@@](O)(C(=O)CO)C[C@@H]3O[C@H]1C[C@H](N)[C@H](O[C@@H]2CCCCO2)[C@H](C)O1 [pirarubicin] (10 µM)	118% (inactive)
Cn1c(NCCN(CCO)CCCc2ccc([N+](=O)[O-])cc2)cc(=O)n(C)c1=O [nifekalant] (10 µM)	120% (inactive)

The origin of these recorded values is the supplement of paper PMC13380429.
